Entry source: patent US11787785B2

target: WIZ protein (HiBit-WIZ fusion protein) (Homo sapiens, UniProt O95785+Q96SW2); construct: expressed in transfected cells; assay: Quantification of WIZ protein levels in HiBit tag fusion protein assay (WIZ HiBit assay in 293T cells); assay type: cell-based; settings: WIZ HiBit assay in 293T cells; 10-point, 5-fold dose response, highest concentration 25 μM, about 18 hours; read-out: WIZ AC50
Sequence (O95785 whole entry, the tested form may be a part): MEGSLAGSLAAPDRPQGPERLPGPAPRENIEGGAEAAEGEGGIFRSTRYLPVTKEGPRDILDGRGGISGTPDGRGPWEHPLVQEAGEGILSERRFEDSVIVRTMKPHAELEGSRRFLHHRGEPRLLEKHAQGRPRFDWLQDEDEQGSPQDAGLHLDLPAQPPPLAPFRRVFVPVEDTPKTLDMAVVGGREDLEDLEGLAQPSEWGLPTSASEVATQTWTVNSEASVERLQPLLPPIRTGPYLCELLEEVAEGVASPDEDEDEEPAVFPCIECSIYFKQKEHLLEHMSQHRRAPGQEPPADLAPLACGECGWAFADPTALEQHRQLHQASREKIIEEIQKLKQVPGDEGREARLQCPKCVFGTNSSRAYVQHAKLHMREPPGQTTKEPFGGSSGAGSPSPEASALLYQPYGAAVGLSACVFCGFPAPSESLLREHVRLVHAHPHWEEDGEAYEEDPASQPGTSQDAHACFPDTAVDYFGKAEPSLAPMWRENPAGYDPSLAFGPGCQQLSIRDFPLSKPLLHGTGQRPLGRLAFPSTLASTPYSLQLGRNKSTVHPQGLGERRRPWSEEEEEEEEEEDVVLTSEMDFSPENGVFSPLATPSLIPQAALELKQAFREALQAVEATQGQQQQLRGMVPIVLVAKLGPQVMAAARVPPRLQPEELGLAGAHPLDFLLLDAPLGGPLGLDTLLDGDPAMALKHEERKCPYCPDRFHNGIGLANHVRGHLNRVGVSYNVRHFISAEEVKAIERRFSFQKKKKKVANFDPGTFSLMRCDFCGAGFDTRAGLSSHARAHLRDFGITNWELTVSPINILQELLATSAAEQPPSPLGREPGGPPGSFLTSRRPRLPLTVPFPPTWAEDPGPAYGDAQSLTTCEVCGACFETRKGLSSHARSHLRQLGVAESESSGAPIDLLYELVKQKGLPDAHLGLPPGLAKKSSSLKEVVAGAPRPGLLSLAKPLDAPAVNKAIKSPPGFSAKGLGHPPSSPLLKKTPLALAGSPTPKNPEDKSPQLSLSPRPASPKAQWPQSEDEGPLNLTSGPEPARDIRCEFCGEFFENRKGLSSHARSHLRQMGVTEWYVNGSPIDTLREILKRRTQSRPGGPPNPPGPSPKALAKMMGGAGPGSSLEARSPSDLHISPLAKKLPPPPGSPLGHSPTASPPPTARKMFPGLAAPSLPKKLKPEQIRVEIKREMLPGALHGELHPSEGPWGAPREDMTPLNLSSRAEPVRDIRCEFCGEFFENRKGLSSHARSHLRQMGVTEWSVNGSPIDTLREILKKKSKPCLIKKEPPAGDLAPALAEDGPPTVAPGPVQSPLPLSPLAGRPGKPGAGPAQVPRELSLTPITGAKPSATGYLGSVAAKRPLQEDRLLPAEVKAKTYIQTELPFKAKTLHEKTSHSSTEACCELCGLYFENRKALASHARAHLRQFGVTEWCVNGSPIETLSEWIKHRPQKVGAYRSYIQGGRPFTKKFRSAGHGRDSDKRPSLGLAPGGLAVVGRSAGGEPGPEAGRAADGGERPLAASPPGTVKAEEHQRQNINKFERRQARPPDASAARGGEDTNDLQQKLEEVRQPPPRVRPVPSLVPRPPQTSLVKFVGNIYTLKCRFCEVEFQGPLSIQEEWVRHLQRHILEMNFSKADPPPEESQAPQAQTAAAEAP
Sequence (Q96SW2 whole entry, the tested form may be a part): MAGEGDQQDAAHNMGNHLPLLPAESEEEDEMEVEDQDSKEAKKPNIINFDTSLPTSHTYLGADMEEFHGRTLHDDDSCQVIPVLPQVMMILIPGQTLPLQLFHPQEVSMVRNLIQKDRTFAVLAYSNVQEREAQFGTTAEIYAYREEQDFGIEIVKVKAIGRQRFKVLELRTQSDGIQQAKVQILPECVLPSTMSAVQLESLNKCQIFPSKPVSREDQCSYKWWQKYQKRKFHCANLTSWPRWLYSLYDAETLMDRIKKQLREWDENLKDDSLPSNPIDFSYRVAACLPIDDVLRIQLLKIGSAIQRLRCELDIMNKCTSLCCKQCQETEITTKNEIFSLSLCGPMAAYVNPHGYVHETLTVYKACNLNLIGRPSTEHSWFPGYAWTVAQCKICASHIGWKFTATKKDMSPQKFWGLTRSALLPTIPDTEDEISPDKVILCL
Sequence (Q16531 whole entry partner, the tested form may be a part): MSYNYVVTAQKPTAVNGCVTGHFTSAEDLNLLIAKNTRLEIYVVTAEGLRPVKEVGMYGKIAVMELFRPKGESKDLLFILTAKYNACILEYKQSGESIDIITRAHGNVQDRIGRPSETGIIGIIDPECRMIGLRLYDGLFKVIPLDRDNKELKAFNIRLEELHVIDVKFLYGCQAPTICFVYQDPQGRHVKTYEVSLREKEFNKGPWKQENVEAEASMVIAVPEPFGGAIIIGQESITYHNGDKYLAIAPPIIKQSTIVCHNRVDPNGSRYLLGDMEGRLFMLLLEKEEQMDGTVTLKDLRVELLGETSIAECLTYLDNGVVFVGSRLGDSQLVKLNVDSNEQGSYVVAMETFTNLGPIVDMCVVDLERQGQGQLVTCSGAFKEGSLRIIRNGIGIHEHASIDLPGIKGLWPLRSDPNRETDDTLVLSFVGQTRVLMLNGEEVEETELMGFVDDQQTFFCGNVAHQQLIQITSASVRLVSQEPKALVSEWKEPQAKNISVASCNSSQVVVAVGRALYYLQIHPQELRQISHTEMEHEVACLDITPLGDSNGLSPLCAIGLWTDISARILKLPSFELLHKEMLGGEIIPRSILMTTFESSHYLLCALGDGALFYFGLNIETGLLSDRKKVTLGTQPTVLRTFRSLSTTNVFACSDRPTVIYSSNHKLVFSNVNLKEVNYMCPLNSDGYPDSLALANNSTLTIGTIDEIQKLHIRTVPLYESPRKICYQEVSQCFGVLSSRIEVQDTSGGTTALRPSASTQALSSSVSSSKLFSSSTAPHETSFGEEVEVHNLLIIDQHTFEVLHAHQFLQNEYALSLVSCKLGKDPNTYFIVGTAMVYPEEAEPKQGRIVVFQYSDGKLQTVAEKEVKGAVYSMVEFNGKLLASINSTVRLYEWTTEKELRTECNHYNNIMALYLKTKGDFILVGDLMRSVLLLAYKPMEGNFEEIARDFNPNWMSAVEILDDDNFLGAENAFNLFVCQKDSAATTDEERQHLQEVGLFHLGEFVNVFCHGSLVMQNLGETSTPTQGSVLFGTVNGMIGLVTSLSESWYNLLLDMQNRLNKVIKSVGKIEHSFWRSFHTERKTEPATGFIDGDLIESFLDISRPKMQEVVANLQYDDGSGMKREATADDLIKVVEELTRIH
Endpoint: log10(DC50) (log10 of the value in nM)
// stored as log10 of DC50 expressed in nM

# annotated cases, reported log10(DC50) shown
INSERT INTO results (compound, obs_value) VALUES
  ('C[C@H]1C[C@H](Cc2ccn3ncc(N4CCC(=O)NC4=O)c3c2)CCN1CC1CCC(F)(F)CC1', 0.30),
  ('C[C@H]1C[C@@H](Cc2ccn3ncc(N4CCC(=O)NC4=O)c3c2)CCN1CC1CCC(F)(F)CC1', 0.48),
  ('C[C@H]1CN(Cc2ccn3ncc(N4CCC(=O)NC4=O)c3c2)CCN1C[C@H]1CC[C@H](O)CC1', 1.30);

Exercise: What measured log10(DC50) goes with O=C1CCN(c2cnn3ccc(CN4CCCN(CC5CCCCC5)CC4)cc23)C(=O)N1 ?
Solution: 2.48

Exercise: Find the recorded log10(DC50) belonging to O=C1CCN(c2cnn3ccc(CC4CCN(Cc5cccc(F)c5)CC4)cc23)C(=O)N1 and report it.
Solution: 1.85

Exercise: Param item = O=C1CCN(c2cnn3ccc(CC4CCN(CCc5c[nH]cn5)CC4)cc23)C(=O)N1 ; retrieve measured log10(DC50).
Solution: 3.16

Exercise: Entry CCCC(CCC)N1CCC(Cc2ccn3ncc(N4CCC(=O)NC4=O)c3c2)CC1 has what log10(DC50)?
Solution: 1.71

Exercise: Request the reported log10(DC50) associated with C[C@H]1CN(Cc2ccn3ncc(-n4ccc(=O)[nH]c4=O)c3c2)CCN1CC1CCC(F)(F)CC1
Solution: 2.04

Exercise: Data request, read-out log10(DC50), for C[C@H]1C[C@H](Cc2ccn3ncc(N4CCC(=O)NC4=O)c3c2)CCN1CC1CCCC1
Solution: 0.90

Exercise: Tell me the measured log10(DC50) of O=C1CCN(c2cnn3ccc(CC4CCN(Cc5cccc(OC(F)(F)F)c5)CC4)cc23)C(=O)N1 , please.
Solution: 1.66

Exercise: What does the record list as log10(DC50) for O=C1CCN(c2cnn3ccc(CN4CCN(CC5(C(F)(F)F)CC5)CC4)cc23)C(=O)N1 ?
Solution: 2.72

Exercise: Find the recorded log10(DC50) belonging to O=C1CCN(c2cnn3ccc(CC4CCN(Cc5ccc(F)cc5F)CC4)cc23)C(=O)N1 and report it.
Solution: 2.05

Exercise: State the recorded log10(DC50) for this entry: O=C1CCN(c2cnn3ccc(CC4CCN(C5CCC5)CC4)cc23)C(=O)N1
Solution: 0.00

Exercise: Value lookup for log10(DC50); key = CC(C)CN1CCC(Cc2ccn3ncc(N4CCC(=O)NC4=O)c3c2)CC1(C)C (centres unmarked)
Solution: 1.81

Exercise: Form field: reported log10(DC50) of C[C@H]1CN(Cc2ccn3ncc(N4CCC(=O)NC4=O)c3c2)CCN1C1CC2(C1)CN(S(C)(=O)=O)C2
Solution: 2.60

Exercise: Suppose we examine the compound CC(C)(C1CCC1)N1CCC(Cc2ccn3ncc(N4CCC(=O)NC4=O)c3c2)CC1 ; what log10(DC50) value has been reported?
Solution: 2.00

Exercise: If you can, please state the reported log10(DC50) value of O=C1CCN(c2cnn3ccc(CN4CCN5CCC[C@@H]5C4)cc23)C(=O)N1 .
Solution: 2.62

Exercise: Please give the measured log10(DC50) for this compound: O=C1CCN(c2cnn3ccc(CN4C[C@H]5CC[C@@H](C4)N5Cc4cccc(F)c4)cc23)C(=O)N1
Solution: 2.22

Exercise: Given C[C@@H]1CN(Cc2ccn3ncc(N4CCC(=O)NC4=O)c3c2)C[C@H](C)N1CC1CCOCC1 , state its recorded log10(DC50).
Solution: 2.27

Exercise: Quick check: log10(DC50) of CC(C)CN1CCN(C(C)c2ccn3ncc(N4CCC(=O)NC4=O)c3c2)CC1 (centres unmarked) ?
Solution: 2.28

* * *

target: WIZ protein (HiBit-WIZ fusion protein) (Homo sapiens, UniProt O95785+Q96SW2); construct: expressed in transfected cells; test: Quantification of WIZ protein levels in HiBit tag fusion protein assay (WIZ HiBit assay in 293T cells); type: cell-based; settings: HEK-293T, DMSO-normalized, curve-fitted percentage of WIZ-HiBit remaining at 25 uM; 293T cells; read-out: WIZ Amax
Threshold 30%: remaining activity at 25 µM strictly smaller gives YES, otherwise NO.

The following molecules have reported results that may help.
INSERT INTO results (molecule, target_under_test, answer_label) VALUES
  ('Cn1nccc1CN1CCC(Cc2ccn3ncc(N4CCC(=O)NC4=O)c3c2)CC1', 'WIZ protein (HiBit-WIZ fusion protein) (Homo sapiens, UniProt O95785+Q96SW2)', 'NO'),
  ('O=C1CCN(c2cnn3ccc(CC4CCN(CC56CC7CC(CC(C7)C5)C6)CC4)cc23)C(=O)N1', 'WIZ protein (HiBit-WIZ fusion protein) (Homo sapiens, UniProt O95785+Q96SW2)', 'YES'),
  ('C[C@H]1CN(Cc2ccn3ncc(N4CCC(=O)NC4=O)c3c2)CCN1C(=O)C1CCC1', 'WIZ protein (HiBit-WIZ fusion protein) (Homo sapiens, UniProt O95785+Q96SW2)', 'NO');

Exercise: Consider the molecule O=C1CCN(c2cnn3ccc(CC4CCN(C(=O)CCC5CCCCC5)CC4)cc23)C(=O)N1 . Is its remaining activity at 25 µM strictly less than 30%?
Solution: NO

Exercise: Please check: remaining activity at 25 µM for O=C1CCN(c2cnn3ccc(CC4CCN(Cc5ccc(OC(F)(F)F)cc5)CC4)cc23)C(=O)N1 , strictly under 30% or not?
Solution: NO

* * *

molecular target: WIZ protein (HiBit-WIZ fusion protein) (Homo sapiens, UniProt O95785+Q96SW2); construct: expressed in transfected cells; assay: Quantification of WIZ protein levels in HiBit tag fusion protein assay (WIZ HiBit assay in 293T cells); type: cell-based; conditions: HEK-293T, 100 − Amax, at 25 uM; 293T cells; read-out: % degradation of WIZ (100 − Amax)
Endpoint: Dmax at 25 µM
Give your result as the value with the unit written after it.

INSERT INTO measurements (compound, obs_value) VALUES
  ('O=C1CCN(c2cnn3ccc(CC4(F)CCN(Cc5ccccc5)CC4)cc23)C(=O)N1 [Example 126]', '35%'),
  ('O=C1CCN(c2cnn3ccc(CN4C[C@H]5C[C@@H]4CN5Cc4cccnc4)cc23)C(=O)N1 [Example 235]', '35%'),
  ('C[C@@H]1CN(Cc2ccn3ncc(N4CCC(=O)NC4=O)c3c2)C[C@H](C)N1CC1CCOCC1 [Example 256]', '78%'),
  ('C[C@H]1CC(F)(Cc2ccn3ncc(N4CCC(=O)NC4=O)c3c2)CCN1CC1CCC(F)(F)CC1 (single isomer, unassigned) [Example 308]', '77%'),
  ('CC(C)CN1CCC(Cc2ccn3ncc(N4CCC(=O)NC4=O)c3c2)CC1(C)C (stereo not shown) [Example 79]', '65%'),
  ('O=C1CCN(c2cnn3ccc(CC4(F)CCN(CC5CCCCC5)CC4)cc23)C(=O)N1 [Example 123]', '68%'),
  ('O=C1CCN(c2cnn3ccc(CC4CCN(Cc5cccc(F)c5)C4)cc23)C(=O)N1 (stereo not shown) [Example 131]', '38%'),
  ('O=C1CCN(c2cnn3ccc(CC4CCN(C(=O)CCc5ccccc5)CC4)cc23)C(=O)N1 [Example 102]', '40%');

Exercise: Report Dmax at 25 µM for COc1cn(-c2cnn3ccc(C[C@@H]4CCN(CC5CCC(F)(F)CC5)[C@@H](C)C4)cc23)c(=O)[nH]c1=O [Example 353] please.
Solution: 70%

Exercise: Could you tell me which Dmax at 25 µM is on file for O=C1CCN(c2cnn3ccc(CC4CCN(CC(F)(F)C5CCCCC5)CC4)cc23)C(=O)N1 [Example 112] ?
Solution: 66%

Exercise: Recorded Dmax at 25 µM of COc1cccc(CN2CCC(Cc3ccn4ncc(N5CCC(=O)NC5=O)c4c3)CC2)c1 [Example 40] , please.
Solution: 70%

Exercise: // Dmax at 25 µM lookup, key: O=C1CCN(c2cnn3ccc(CC4CCN(CC5CC(F)(F)C5)CC4)cc23)C(=O)N1 [Example 32]
Solution: 82%

Exercise: Would you mind telling me what Dmax at 25 µM value was observed for C[C@H]1C[C@H](Cc2ccn3ncc(-n4cc(F)c(=O)[nH]c4=O)c3c2)CCN1CC1CCC(F)(F)CC1 [Example 350] ?
Solution: 90%

Exercise: Find the recorded Dmax at 25 µM belonging to C[C@H]1CN(CC2CC(F)(F)C2)CCN1Cc1ccn2ncc(N3CCC(=O)NC3=O)c2c1 [Example 226] and report it.
Solution: 45%

Exercise: Tell me the measured Dmax at 25 µM of CC(C)CN1CCN(C(C)c2ccn3ncc(N4CCC(=O)NC4=O)c3c2)CC1 (stereo not shown) [Example 345] , please.
Solution: 73%

Exercise: Request the reported Dmax at 25 µM associated with C[C@H]1CN(Cc2ccn3ncc(N4CCC(=O)NC4=O)c3c2)CCN1C(=O)C1CCCC1 [Example 343]
Solution: 46%
